Reference for the values: patent US20250289813A1

# assayed_target: CDK4/cyclin D1 (Homo sapiens (Human))
# Sequence (P11802 whole entry): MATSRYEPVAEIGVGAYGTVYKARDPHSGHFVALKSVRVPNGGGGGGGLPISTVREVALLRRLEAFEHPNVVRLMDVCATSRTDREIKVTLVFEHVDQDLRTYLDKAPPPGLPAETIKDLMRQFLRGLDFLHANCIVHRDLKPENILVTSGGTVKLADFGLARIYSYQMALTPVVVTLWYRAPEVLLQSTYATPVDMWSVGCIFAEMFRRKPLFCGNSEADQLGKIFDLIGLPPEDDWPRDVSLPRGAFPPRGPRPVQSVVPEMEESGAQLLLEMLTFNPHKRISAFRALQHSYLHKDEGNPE
# Sequence (P24385 whole entry partner): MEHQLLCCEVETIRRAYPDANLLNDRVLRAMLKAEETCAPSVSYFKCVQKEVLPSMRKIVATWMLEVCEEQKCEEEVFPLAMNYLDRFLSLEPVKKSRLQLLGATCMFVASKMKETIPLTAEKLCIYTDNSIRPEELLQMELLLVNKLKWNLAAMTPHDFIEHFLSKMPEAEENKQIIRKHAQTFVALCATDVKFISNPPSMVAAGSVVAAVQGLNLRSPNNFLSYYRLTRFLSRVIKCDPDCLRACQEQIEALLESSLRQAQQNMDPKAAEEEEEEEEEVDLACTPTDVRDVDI
# assay_remarks: CDK4 Caliper Mobility Shift assay
Can you tell me IC50 for the items I'm about to list?

Query :: Value wanted: IC50 (CDK4/cyclin D1 (Homo sapiens (Human))) of entry CCS(=O)(=O)N1CCN(c2ccc(Nc3ncc4c(C)c(C(C)=O)c(=O)n(C5CCCC5)c4n3)nc2)CC1 [Compound C2]
Result :: ≤ 200 nM

Query :: Value wanted: IC50 (CDK4/cyclin D1 (Homo sapiens (Human))) of entry CC(=O)c1c(C)c2cnc(Nc3ccc(N4CCN(S(=O)(=O)N5CCCC[C@@H]5CO)CC4)cn3)nc2n(C2CCCC2)c1=O [Compound A7]
Result :: ≤ 200 nM

Query :: Value wanted: IC50 (CDK4/cyclin D1 (Homo sapiens (Human))) of entry CCCNS(=O)(=O)N1CCN(c2ccc(Nc3ncc4c(C)c(C(C)=O)c(=O)n(C5CCCC5)c4n3)nc2)CC1 [Compound A49]
Result :: 200 to 500 nM
